Assay Explanation: Lipophilicity, log D of the compound at pH 7.4
Type: physicochemical
Condition Parameters: buffer
The reader will find reported logD values listed item by item below.

Molecular String	logD
O=c1[nH]c(-c2ccccc2)nc2c3c(sc12)CCCC3	4.11
O=c1[nH]c(-c2ccccc2)cc2c1sc1ccccc12	3.63
Cc1ccc(-c2nc3c(sc4ccccc43)c(=O)[nH]2)cc1	4.13
COc1ccc2c(c1)[nH]c(=O)c1sc3ccc(OC)cc3c12	3.43
O=c1[nH]c2ccccc2c2ccsc12	2.65
O=c1[nH]ccc2c1sc1ccccc12	3.62
O=c1[nH]c(-c2cccs2)nc2c1sc1ccccc12	3.52
O=c1[nH]c2ccccc2c2c1sc1ccc(O)cc12	3.44
Oc1cc(-c2ccccc2)c2ccccc2n1	3.03
O=c1[nH]c(C2CCCCC2)nc2c1sc1ccccc12	3.89
COc1ccc2sc3c(O)nc4ccccc4c3c2c1	3.59
COc1ccc2c(c1)nc(O)c1sc3ccccc3c12	3.59
O=c1[nH]c(-c2ccccc2)cc2ccsc12	2.53
